# tested.target: human, KCNT1 (Homo sapiens (Human), UniProt Q5JUK3)
# Sequence (Q5JUK3 whole entry): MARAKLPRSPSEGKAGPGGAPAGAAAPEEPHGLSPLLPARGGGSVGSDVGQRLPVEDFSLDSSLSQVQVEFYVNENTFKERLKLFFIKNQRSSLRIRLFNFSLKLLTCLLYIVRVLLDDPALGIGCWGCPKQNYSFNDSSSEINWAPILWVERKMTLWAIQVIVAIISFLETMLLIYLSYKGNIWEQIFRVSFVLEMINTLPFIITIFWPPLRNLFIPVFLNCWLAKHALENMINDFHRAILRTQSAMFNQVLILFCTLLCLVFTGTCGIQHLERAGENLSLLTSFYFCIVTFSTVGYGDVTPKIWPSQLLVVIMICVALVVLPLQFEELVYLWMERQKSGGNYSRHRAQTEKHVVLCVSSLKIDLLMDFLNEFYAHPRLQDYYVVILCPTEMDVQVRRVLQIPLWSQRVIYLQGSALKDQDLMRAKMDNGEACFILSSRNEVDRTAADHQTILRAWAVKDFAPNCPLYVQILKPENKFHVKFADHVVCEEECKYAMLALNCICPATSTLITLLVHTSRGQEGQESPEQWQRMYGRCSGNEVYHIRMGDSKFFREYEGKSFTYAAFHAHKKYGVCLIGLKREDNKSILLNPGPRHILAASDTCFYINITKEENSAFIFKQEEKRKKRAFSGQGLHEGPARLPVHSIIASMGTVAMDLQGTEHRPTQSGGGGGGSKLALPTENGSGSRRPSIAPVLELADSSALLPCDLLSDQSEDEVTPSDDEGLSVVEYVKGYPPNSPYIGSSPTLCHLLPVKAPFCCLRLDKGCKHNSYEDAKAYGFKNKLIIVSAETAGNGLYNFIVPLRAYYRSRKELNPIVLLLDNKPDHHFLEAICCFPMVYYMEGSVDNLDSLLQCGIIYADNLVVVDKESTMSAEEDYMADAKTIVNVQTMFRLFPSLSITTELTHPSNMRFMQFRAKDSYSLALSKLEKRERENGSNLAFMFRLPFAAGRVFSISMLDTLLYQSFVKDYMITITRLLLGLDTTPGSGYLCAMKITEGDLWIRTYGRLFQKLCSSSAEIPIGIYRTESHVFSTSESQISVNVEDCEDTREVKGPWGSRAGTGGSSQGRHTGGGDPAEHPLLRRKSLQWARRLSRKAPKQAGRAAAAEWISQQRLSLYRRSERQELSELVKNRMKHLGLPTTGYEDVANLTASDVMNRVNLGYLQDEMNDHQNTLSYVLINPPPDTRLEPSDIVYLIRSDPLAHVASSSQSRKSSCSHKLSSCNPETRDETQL
# assay.info: FLIPR Tl/K Flux Assay
# assay.conditions: HEK293 cells stably expressing human KCNT1; Tl+ flux stimulated with EC80 of agonist Loxapine
pIC50: −log10 of the molar value.
Overview of recorded pIC50 for various compounds
measured.metric: pIC50

1) O=C(N[C@H]1CCc2cnc(-c3ccnc(C(F)(F)F)c3)cc21)c1cncc(C(F)(F)F)n1 [Compound I-197a] = < 6.00
2) Cn1nc(C(F)(F)F)cc1C(=O)N[C@@H]1CCc2nn(-c3ccnc(C4CC4)c3)cc21 [Compound I-71b] = 6.00 to 6.30
3) CCc1[nH]nc(C(=O)N[C@H]2CCCn3nc(-c4ccnc(C(F)(F)F)c4)cc32)c1F [Compound I-439a] = > 6.60
4) Cn1nc(C2CC2)cc1C(=O)N[C@H]1CCCCc2nn(-c3ccnc(C(F)(F)F)c3)cc21 [Compound I-369a] = > 6.60
5) O=C(N[C@H]1CCn2nc(-c3cc(C(F)(F)F)ncc3F)cc21)C12CC(C(F)(F)F)(C1)C2 [Compound I-493a] = > 6.60
6) COc1cc(-n2cc3c(n2)CCCC[C@H]3NC(=O)c2cccc(C)c2)ccn1 [Compound I-376b] = < 6.00
7) N#Cc1cccc(C(=O)N[C@H]2CCc3nn(-c4ccnc(C(F)(F)F)c4)cc32)c1 [Compound I-454a] = > 6.60
8) Cn1nc(C(F)(F)F)cc1C(=O)NC1CCCc2nc(-c3ccnc(C(F)(F)F)c3)oc21 (stereo not drawn) [Compound I-83] = > 6.60
9) CCOc1cc(-n2cc3c(n2)CCCCC3NC(=O)c2cccc(C)c2)ccn1 (racemic) [Compound I-59] = > 6.60
10) O=C(N[C@H]1CCCc2oc(-c3ccnc(C4CC4)c3)nc21)c1cncc(F)c1 [Compound I-132a] = > 6.60
11) O=C(N[C@H]1CCn2nc(-c3ccnc(C4CC4)c3)cc21)C12CC(CC(F)(F)F)(C1)C2 [Compound I-584a] = > 6.60
12) N#Cc1cc(C(=O)N[C@H]2CCCCn3nc(-c4ccnc(C(F)(F)F)c4)cc32)ccc1F [Compound I-277a] = > 6.60
13) CCOc1cc(-c2cc3n(n2)CCC[C@@H]3NC(=O)c2cc(F)cc(C#N)c2)ccn1 [Compound I-252a] = > 6.60
14) Cc1cc(F)cc(C(=O)N[C@@H]2CCc3nn(-c4ccnc(C(F)(F)F)c4)cc32)c1 [Compound I-384b] = > 6.60
15) O=C(N[C@H]1CCn2nc(-c3ccnc(C(F)(F)F)c3)cc21)c1cc(F)cc(C2CC2)c1 [Compound I-569a] = > 6.60

FYI, the data here is from patent US20250313548A1.
